# subject-of-test: Proto-oncogene tyrosine-protein kinase Src (Homo sapiens, UniProt P12931)
# Sequence (P12931 2-536 limits assumed): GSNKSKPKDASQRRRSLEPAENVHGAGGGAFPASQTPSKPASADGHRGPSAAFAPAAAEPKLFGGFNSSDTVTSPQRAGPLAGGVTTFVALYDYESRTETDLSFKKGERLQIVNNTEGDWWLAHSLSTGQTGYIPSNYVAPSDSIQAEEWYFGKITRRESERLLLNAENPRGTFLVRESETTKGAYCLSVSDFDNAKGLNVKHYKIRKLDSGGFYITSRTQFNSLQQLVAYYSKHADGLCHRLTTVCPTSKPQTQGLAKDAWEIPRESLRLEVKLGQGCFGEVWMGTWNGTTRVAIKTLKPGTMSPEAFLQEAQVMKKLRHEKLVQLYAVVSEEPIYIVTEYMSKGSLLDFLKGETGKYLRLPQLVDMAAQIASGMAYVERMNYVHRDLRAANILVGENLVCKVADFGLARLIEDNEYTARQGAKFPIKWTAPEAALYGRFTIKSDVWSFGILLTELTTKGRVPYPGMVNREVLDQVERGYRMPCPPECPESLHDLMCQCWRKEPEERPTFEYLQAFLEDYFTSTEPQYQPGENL
observation-type: pIC50
Scale note: pIC50 = -log10(concentration in M).

compound: Cc1ccc(NC(=O)c2cccc(C(F)(F)F)c2)cc1Nc1nc2ccccc2n1-c1cc(NCCCC2COCCN2)ncn1 (stereo not drawn)
subject-of-test: Proto-oncogene tyrosine-protein kinase Src (Homo sapiens, UniProt P12931)
observation-type: pIC50
test-value: 6.78
--
compound: Cc1ccc(NC(=O)c2cc(C3CC3)n[nH]2)cc1Nc1nc2ccccc2n1-c1cc(N)ncn1
subject-of-test: Proto-oncogene tyrosine-protein kinase Src (Homo sapiens, UniProt P12931)
observation-type: pIC50
test-value: 5.13
--
compound: Cc1ccc(NC(=O)c2cccc(C(F)(F)F)c2)cc1Nc1nc2ccccc2n1-c1cc(NCCCN2CCN(C)CC2)ncn1
subject-of-test: Proto-oncogene tyrosine-protein kinase Src (Homo sapiens, UniProt P12931)
observation-type: pIC50
test-value: 6.89
--
compound: Cc1ccc(NC(=O)c2ccc(C(C)(C)C)s2)cc1Nc1nc2ccccc2n1-c1cc(N)ncn1
subject-of-test: Proto-oncogene tyrosine-protein kinase Src (Homo sapiens, UniProt P12931)
observation-type: pIC50
test-value: 6.04

// assay Proto-oncogene tyrosine-protein kinase Src (Homo sapiens, UniProt P12931), entry "CCN(CC)CCCCNc1cc(-n2c(Nc3cc(C(=O)Nc4cccc(C(F)(F)F)c4)ccc3C)nc3ccccc32)ncn1" , pIC50 value = 6.56

Assay Proto-oncogene tyrosine-protein kinase Src (Homo sapiens, UniProt P12931), sample "Cc1ccc(C(=O)Nc2cccc(C(F)(F)F)c2)cc1Nc1nc2ccccc2n1-c1cc(NCCN2CCN(C)CC2)ncn1" , pIC50 read: 6.34

Form field, pIC50 with Proto-oncogene tyrosine-protein kinase Src (Homo sapiens, UniProt P12931), item "Cc1ccc(NC(=O)c2cccc(C(F)(F)F)c2)cc1Nc1nc2ccccc2n1-c1cc(Cl)ncn1" : 4.78

----------
# subject-of-test: Proto-oncogene tyrosine-protein kinase Src (Homo sapiens)
# experimental-protocol: Inhibition of SRC
The entries below come with measured IC50 values attached.

Some solved cases for reference:
structure-string: Cc1ccc(NC(=O)c2cc(C(C)(C)C)nn2C)cc1Nc1nc2ccccc2n1-c1cc(N)ncn1
subject-of-test: Proto-oncogene tyrosine-protein kinase Src (Homo sapiens)
IC50: 7.19 µM
//
structure-string: Cc1ccc(C(=O)Nc2cccc(C(F)(F)F)c2)cc1Nc1nc2ccccc2n1-c1ncnc(N)c1C
subject-of-test: Proto-oncogene tyrosine-protein kinase Src (Homo sapiens)
IC50: > 2.5 µM

Switching to the query record.
get_value(item= "COc1cc(-n2c(Nc3cc(NC(=O)c4cccc(C(F)(F)F)c4)ccc3C)nc3ccccc32)ncn1" , readout=IC50) returns > 2.5 µM

----------
# subject-of-test: Proto-oncogene tyrosine-protein kinase Src (Homo sapiens, UniProt P12931)
# experimental-protocol: Inhibition of SRC
Each entry below carries its reported IC50.
Answer format: numeric, nM implied, no suffix.

structure-string: Cc1cccc(C(=O)Nc2ccc(C)c(Nc3nc4ccccc4n3-c3cc(N)ncn3)c2)c1
IC50 (nM): 1540
--
structure-string: Cc1ccc(NC(=O)c2cccc(C(F)(F)F)c2)cc1Nc1nc2ccccc2n1-c1cc(NCCCCN(C)C)ncn1
IC50 (nM): 139
--
structure-string: Cc1ccc(C(=O)Nc2cccc(C(F)(F)F)c2)cc1Nc1nc2ccccc2n1-c1cc(NCCCN2CCN(C)CC2)ncn1
IC50 (nM): 494

Record "Cc1ccc(NC(=O)c2cc(OC3CCN(C)CC3)cc(C(F)(F)F)c2)cc1Nc1nc2ccccc2n1-c1cc(N)ncn1" , field IC50: 233
